# TEST_METHOD_NOTES: ATG_TA_CIS: Attagene CIS-FACTORIAL HepG2 Assay for human TA Basal Promoter (AID 2282964)
# MEASUREMENT_PARAMETERS: HepG2 Attagene CIS-factorial TA basal promoter reporter; actives raise or lower the signal
Activity calls are given as the source filed them. The calls were made as follows: active = hit-call score of the fitted dose curve at least 0.9, where 1 is the maximum; inactive = score below 0.9.
Entry note: the call must match one of YES (active), NO (inactive)

Input: Fill in: this test's call for CCOC(=O)Cc1ccccc1 is ___
Output: NO

Input: Fill in: this test's call for CCOP(=S)(OCC)SCS(=O)(=O)C(C)(C)C is ___
Output: NO

Input: Fill in: this test's call for Cc1cc(Cl)ccc1OCCCC(=O)O is ___
Output: NO

Input: Fill in: this test's call for Cc1cc(-c2cc(C)c(N)c(C)c2)cc(C)c1N is ___
Output: NO

Input: Fill in: this test's call for Cc1cccc(N=Nc2ccc(N(C)C)cc2)c1 is ___
Output: NO

Input: Fill in: this test's call for c1ccc(-c2cccc(-c3ccccc3)c2)cc1 is ___
Output: NO

Input: Fill in: this test's call for BrCc1ccc(Br)cc1 is ___
Output: NO

Input: Fill in: this test's call for COc1ccccc1N is ___
Output: NO

Input: Fill in: this test's call for COc1nn(C(=O)NS(=O)(=O)c2ccccc2OC(F)(F)F)c(=O)n1C is ___
Output: NO

Input: Fill in: this test's call for [F][Sn]([c]1ccccc1)([c]1ccccc1)[c]1ccccc1 is ___
Output: YES

Input: Fill in: this test's call for CCCCCCCCBr is ___
Output: NO

Input: Fill in: this test's call for CN(C)[C@@H]1C(=O)C(C(N)=O)=C(O)[C@@]2(O)C(=O)C3=C(O)c4c(O)ccc(Cl)c4[C@@](C)(O)[C@H]3C[C@@H]12 is ___
Output: NO

Input: Fill in: this test's call for CCCCCCCCCCCCc1cccc(S(=O)(=O)O)c1 is ___
Output: NO

Input: Fill in: this test's call for C=CC(=O)OCC(COC(=O)C=C)(COC(=O)C=C)COC(=O)C=C is ___
Output: NO

Input: Fill in: this test's call for FC(F)OCC(F)(F)C(F)(F)F is ___
Output: NO

Input: Fill in: this test's call for CNC(=O)CSP(=O)(OC)OC is ___
Output: NO

Input: Fill in: this test's call for O=C(NC(=O)c1c(F)cccc1F)Nc1cc(Cl)c(F)c(Cl)c1F is ___
Output: NO

Input: Fill in: this test's call for N#CS is ___
Output: NO

Input: Fill in: this test's call for CC(C)C(C)(N)C#N (stereo unspecified) is ___
Output: NO

Input: Fill in: this test's call for CN(C)CCN(C)C is ___
Output: NO

Input: Fill in: this test's call for c1csc(-c2ccc(-c3cccs3)s2)c1 is ___
Output: YES

Input: Fill in: this test's call for COCC(=O)N(c1c(C)cccc1C)[C@H](C)C(=O)OC is ___
Output: NO

Input: Fill in: this test's call for CCCSP(=S)(OCC)Oc1ccc(SC)cc1 (stereo unspecified) is ___
Output: NO

Input: Fill in: this test's call for O=C1C=CC(=O)c2ccccc21 is ___
Output: NO

Input: Fill in: this test's call for Cc1c([N+](=O)[O-])c(C)c([N+](=O)[O-])c(C(C)(C)C)c1[N+](=O)[O-] is ___
Output: NO

Input: Fill in: this test's call for O=c1[nH]c(=O)n(Cl)c(=O)n1Cl is ___
Output: NO

Input: Fill in: this test's call for Clc1cnc(Oc2ccc(Oc3ncc(Cl)cc3Cl)cc2)c(Cl)c1 is ___
Output: NO

Input: Fill in: this test's call for CCOC(=O)c1ccccc1S(=O)(=O)NC(=O)Nc1nc(Cl)cc(OC)n1 is ___
Output: NO

Input: Fill in: this test's call for CC(C)(C)c1cc([N+](=O)[O-])cc(C(C)(C)C)c1O is ___
Output: NO

Input: Fill in: this test's call for CCOP(=S)(OCC)SCSc1cc(Cl)ccc1Cl is ___
Output: NO

Input: Fill in: this test's call for O=S(=O)(F)C(F)(F)C(F)(F)C(F)(F)C(F)(F)F is ___
Output: NO

Input: Fill in: this test's call for Cc1cc(Cl)ccc1O is ___
Output: NO

Input: Fill in: this test's call for CC(C)[C@@H](Nc1ccc(C(F)(F)F)cc1Cl)C(=O)OC(C#N)c1cccc(Oc2ccccc2)c1 (stereo partly specified) is ___
Output: NO

Input: Fill in: this test's call for O=C(O)c1cc(I)cc(I)c1I is ___
Output: NO

Input: Fill in: this test's call for O=NN1CCCCCC1 is ___
Output: NO

Input: Fill in: this test's call for CCC(C)(C#N)N=NC(C)(C#N)CC (stereo unspecified) is ___
Output: NO

Input: Fill in: this test's call for O=C/C(Cl)=C(/Cl)C(=O)O is ___
Output: NO

Input: Fill in: this test's call for CC(C)(COCC1CO1)COCC1CO1 (stereo unspecified) is ___
Output: NO

Input: Fill in: this test's call for CCCCOC(C)=O is ___
Output: NO

Input: Fill in: this test's call for C[C@]12CC[C@@H](O)C[C@@H]1CC[C@@H]1[C@@H]2CC[C@]2(C)C(=O)CC[C@@H]12 is ___
Output: NO

Input: Fill in: this test's call for O=C(Nc1ccc(Br)cc1)c1cc(Br)cc(Br)c1O is ___
Output: NO

Input: Fill in: this test's call for O=C(NC(=O)c1c(F)cccc1F)Nc1ccc(Cl)cc1 is ___
Output: NO

Input: Fill in: this test's call for c1ccc2sc(SNC3CCCCC3)nc2c1 is ___
Output: NO

Input: Fill in: this test's call for CCCCOP(=O)(CCCC)OCCCC is ___
Output: NO

Input: Fill in: this test's call for C1CCC(C2CCCCC2)CC1 is ___
Output: NO

Input: Fill in: this test's call for COC(=O)c1cc(Oc2ccc(Cl)cc2Cl)ccc1[N+](=O)[O-] is ___
Output: YES

----------
# Read-out: Urokinase-type plasminogen activator receptor (uPAR), PLAUR (gene 5329)
# TEST_METHOD_NOTES: BSK_4H_uPAR: BioMAP Diversity Plus: 4H Assay for Urokinase-type plasminogen activator receptor (uPAR) Biomarker Activity (AID 2283030)
# MEASUREMENT_PARAMETERS: primary human endothelial cells (HUVEC); actives raise or lower the signal
Calls of active or inactive are those of the source. Rule for the calls: active = hit-call score of the fitted dose curve at least 0.9, where 1 is the maximum; inactive = score below 0.9.
Entry note: the call must match one of active, inactive

Input: Fill in: this test's call for OCCN(CCO)CCO is ___
Output: inactive

Input: Fill in: this test's call for O=C(CCl)NCO is ___
Output: inactive

Input: Fill in: this test's call for Oc1cc(Cl)c(Cl)cc1Cl is ___
Output: active

----------
# TEST_METHOD_NOTES: ATG_GATA_CIS: Attagene CIS-FACTORIAL HepG2 Assay for human GATA Binding Protein (AID 2282944)
# MEASUREMENT_PARAMETERS: HepG2 GATA cis-element reporter, Attagene multiplex mRNA; actives raise or lower the signal
Calls of active or inactive are those of the source. Rule for the calls: active = hit-call score of the fitted dose curve at least 0.9, where 1 is the maximum; inactive = score below 0.9.
Entry note: the call must match one of t (active), f (inactive)

Input: Fill in: this test's call for CCOC(=O)OC1=C(c2cc(C)ccc2C)C(=O)NC12CCC(OC)CC2 (configuration not stated) is ___
Output: f

Input: Fill in: this test's call for CNC(=O)O/N=C/C(C)(C)S(C)(=O)=O is ___
Output: f

Input: Fill in: this test's call for CCCCCCCCCCCCBr is ___
Output: f

Input: Fill in: this test's call for CC(C=O)Cc1ccc2c(c1)OCO2 (configuration not stated) is ___
Output: f

Input: Fill in: this test's call for Cc1cccc(N=Nc2ccc(N(C)C)cc2)c1 is ___
Output: f

Input: Fill in: this test's call for C#CCOC(=O)/C=C(C)/C=C/CC(C)CCCC(C)C (configuration not stated) is ___
Output: f

Input: Fill in: this test's call for O=S1(=O)OC(c2cc(Br)c(O)c(Br)c2)(c2cc(Br)c(O)c(Br)c2)c2ccccc21 is ___
Output: f

Input: Fill in: this test's call for COC(=O)c1cc(Oc2ccc(Cl)cc2Cl)ccc1[N+](=O)[O-] is ___
Output: f

Input: Fill in: this test's call for CC(C)CP(=S)(S)CC(C)C is ___
Output: f

Input: Fill in: this test's call for C[As+](C)(C)CC(=O)[O-] is ___
Output: f

Input: Fill in: this test's call for OCC(c1ccc(Cl)cc1)c1ccc(Cl)cc1 is ___
Output: t

Input: Fill in: this test's call for C=CC(Cl)CCl (configuration not stated) is ___
Output: f

Input: Fill in: this test's call for CCNc1nc(NCC)nc(SC)n1 is ___
Output: f

Input: Fill in: this test's call for O=S(=O)(c1ccc(Cl)cc1)c1cc(Cl)c(Cl)cc1Cl is ___
Output: f

Input: Fill in: this test's call for O=[N+]([O-])c1ccc(Cl)c([N+](=O)[O-])c1 is ___
Output: f

Input: Fill in: this test's call for Cc1ccccc1OP(=O)(Oc1ccccc1C)Oc1ccccc1C is ___
Output: f

Input: Fill in: this test's call for C=CCN=C=S is ___
Output: f
